- EXPERIMENTAL SYSTEM: T1, recombinant human PD-L1-Fc protein (human, UniProt Q9NZQ7 19-238, limits assumed)
- T1 construct: Prepared by Beijing Hanmi Pharmaceutical; The GenBank number is NP_001254635.1
- T1 sequence (Q9NZQ7 19-238 limits assumed): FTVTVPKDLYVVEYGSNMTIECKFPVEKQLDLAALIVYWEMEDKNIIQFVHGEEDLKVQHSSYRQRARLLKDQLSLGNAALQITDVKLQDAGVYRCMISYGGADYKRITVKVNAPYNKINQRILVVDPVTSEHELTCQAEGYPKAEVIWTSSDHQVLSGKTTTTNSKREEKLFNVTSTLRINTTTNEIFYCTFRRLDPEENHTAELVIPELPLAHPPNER
- TEST DETAILS: competition ELISA: PD-L1-Fc coated, competitor biotin-labelled PD-1-Fc
We begin with a simple list: items and their reported IC50.
Please state the value followed by its unit.

humanized anti-human PD-L1 monoclonal antibody VLS15-VHS12 P2 (antibody, human IgG1, kappa, V domains shown) VH: EVQLVQSGAEVKKPGSSVKVSCKASGFNIEDTYIHWVRQAPGQGLEWMGRIDPASGNTKYDPKFQGRVTITADTSTNTAYMELSSLRSEDTAVYYCGRGLGAWFAYWGQGTLVTVSS VL: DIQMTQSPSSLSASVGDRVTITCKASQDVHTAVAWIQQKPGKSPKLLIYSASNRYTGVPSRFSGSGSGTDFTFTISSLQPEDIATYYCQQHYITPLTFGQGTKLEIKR; 0.585 nM

Problem: What measured IC50 goes with humanized anti-human PD-L1 monoclonal antibody VLS10-VHS7 P2 (antibody, human IgG1, kappa, V domains shown) VH: QVQLVQSGAEVKKPGSSVKVSCTASGFNIEDTYIHWVRQAPGQGLEWMGRIDPASGNTKYDPKFQGRVTITADTSTNTAYMELSSLRSEDTAVYYCGRGLGAWFAYWGQGTLVTVSS VL: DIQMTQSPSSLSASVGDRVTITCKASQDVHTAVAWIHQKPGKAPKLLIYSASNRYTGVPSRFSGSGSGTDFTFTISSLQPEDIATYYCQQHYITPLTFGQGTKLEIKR ?
Result: 0.725 nM

Problem: What measured IC50 goes with humanized anti-human PD-L1 monoclonal antibody VLS15-VHS12 (antibody, human IgG1, kappa, V domains shown) VH: EVQLVQSGAEVKKPGSSVKVSCKASGFNIEDTYIHWVRQAPGQGLEWMGRIDPANGNTKYDPKFQGRVTITADTSTNTAYMELSSLRSEDTAVYYCGRGLGAWFAYWGQGTLVTVSS VL: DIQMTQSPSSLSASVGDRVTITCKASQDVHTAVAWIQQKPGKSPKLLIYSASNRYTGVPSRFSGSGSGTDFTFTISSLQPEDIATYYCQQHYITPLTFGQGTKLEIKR ?
Result: 0.666 nM
